- Method Notes: Stability in mouse plasma assessed as half life by LCMS analysis
- Type: ADME, cell-free

{"Molecule": "C/C(=C\\CCP(=O)(OCOC(=O)c1cn(-c2ccc(F)cc2)nn1)Oc1ccc(C(C)C)cc1)CO (centres undefined)", "Unit Text": "min", "Result Modifier": "=", "t1/2": 1.1}
{"Molecule": "C/C(=C\\CCP(=O)(OCOC(=O)c1cn(-c2ccc(F)cc2)nn1)Oc1ccccc1)CO (centres undefined)", "Unit Text": "min", "Result Modifier": "=", "t1/2": 2}
{"Molecule": "C/C(=C\\CCP(=O)(OCOC(=O)c1cn(-c2ccccc2)nn1)Oc1ccccc1)CO (centres undefined)", "Unit Text": "min", "Result Modifier": "=", "t1/2": 1.1}
{"Molecule": "CC(=O)OC/C(C)=C/CCP(=O)(OCOC(=O)c1cn(-c2ccc(C(C)C)cc2)nn1)Oc1ccccc1 (centres undefined)", "Unit Text": "min", "Result Modifier": "=", "t1/2": 3.6}
{"Molecule": "COCCc1ccc(OP(=O)(CC/C=C(\\C)CO)OCOC(=O)c2cn(-c3ccc(F)cc3F)nn2)cc1 (centres undefined)", "Unit Text": "min", "Result Modifier": "<", "t1/2": 1}
{"Molecule": "CC(=O)OC/C(C)=C/CCP(=O)(OCOC(=O)c1cn(-c2ccccc2)nn1)Oc1ccc(C(C)C)cc1 (centres undefined)", "Unit Text": "min", "Result Modifier": "=", "t1/2": 1}
{"Molecule": "CC(=O)OC/C(C)=C/CCP(=O)(OCOC(=O)c1cn(-c2ccc(F)cc2)nn1)Oc1ccccc1 (centres undefined)", "Unit Text": "min", "Result Modifier": "=", "t1/2": 8.8}
{"Molecule": "CC(=O)OC/C(C)=C/CCP(=O)(OCOC(=O)c1cn(-c2ccc(F)cc2)nn1)Oc1ccc(C(C)C)cc1 (centres undefined)", "Unit Text": "min", "Result Modifier": "=", "t1/2": 3.6}
{"Molecule": "COCCc1ccc(OP(=O)(CC/C=C(\\C)COC(C)=O)OCOC(=O)c2cn(-c3ccc(F)cc3F)nn2)cc1 (centres undefined)", "Unit Text": "min", "Result Modifier": "<", "t1/2": 1}
{"Molecule": "CC(=O)OC/C(C)=C/CCP(=O)(OCOC(=O)c1cn(-c2ccccc2)nn1)Oc1ccccc1 (centres undefined)", "Unit Text": "min", "Result Modifier": "=", "t1/2": 3.1}
{"Molecule": "CC(=O)OC/C(C)=C/CCP(=O)(OCOC(=O)c1cn(-c2ccc(C(C)C)cc2)nn1)Oc1ccc(C(C)C)cc1 (centres undefined)", "Unit Text": "min", "Result Modifier": "=", "t1/2": 5.8}
{"Molecule": "C/C(=C\\CCP(=O)(OCOC(=O)c1cn(-c2ccc(C(C)C)cc2)nn1)Oc1ccc(C(C)C)cc1)CO (centres undefined)", "Unit Text": "min", "Result Modifier": "=", "t1/2": 0.84}
{"Molecule": "C/C(=C\\CCP(=O)(OCOC(=O)c1cn(-c2ccccc2)nn1)Oc1ccc(C(C)C)cc1)CO (centres undefined)", "Unit Text": "min", "Result Modifier": "=", "t1/2": 1}
{"Molecule": "C/C(=C\\CCP(=O)(OCOC(=O)c1cn(-c2ccc(C(C)C)cc2)nn1)Oc1ccccc1)CO (centres undefined)", "Unit Text": "min", "Result Modifier": "=", "t1/2": 3}
